The reported measurements were obtained from ChEMBL document CHEMBL1140156.

Recorded CC50 values for a group of compounds are listed next.
Test system: K562
ASSAY_NOTES: Cytotoxicity against human K562 cells
Format: functional
TEST_CONDITIONS: read-out: LC50 (the source's name)
Give your result in µg/mL as a bare value.

Check out these entries, answers already filled in.
| ENTRY_SMILES | TEST_SYSTEM | MEASUREMENT_UNIT | CC50 |
| --- | --- | --- | --- |
| CCCC(=O)O[C@@H]1[C@@H](OC(C)=O)[C@@H](O)C(C)=C[C@@H]2[C@H]3[C@@H](C(C)C)[C@@H](OC(=O)CC(C)C)[C@H](OC(=O)CCC)[C@@]3(C)[C@@H](OC(=O)CCC)C[C@]21C | K562 | µg/mL | 18.1 |
| CCCC(=O)O[C@@H]1[C@H](C(C)C)[C@@H]2[C@H]3C=C(C)[C@H](O)[C@H](OC(C)=O)[C@@H](OC(=O)CCC)[C@]3(C)C[C@H](OC(=O)CC)[C@]2(C)[C@H]1OC(=O)CCC | K562 | µg/mL | 10 |

**Query** Find CC50 (K562) for the entry CCCC(=O)O[C@H]1C[C@]2(C)[C@H]([C@H]1C(C)C)[C@H]1C=C(C)[C@H](O)[C@H](OC(C)=O)[C@@H](OC(=O)CCC)[C@]1(C)C[C@@H]2OC(=O)CCC
**Result** 0.19

**Query** Next up: CCCC(=O)O[C@@H]1[C@H](C(C)C)[C@@H]2[C@H]3C=C(C)[C@H](O)[C@H](OC(C)=O)[C@@H](OC(=O)CCC)[C@]3(C)C[C@H](OC(C)=O)[C@]2(C)[C@H]1OC(=O)CCC
**Result** 11.5

**Query** Same question for CCCC(=O)O[C@H]1C[C@]2(C)[C@H]([C@H]1C(C)C)[C@H]1C=C(C)[C@H](O)[C@H](OC(C)=O)[C@@H](OC(=O)CCC)[C@]1(C)C[C@@H]2OC(=O)CC(C)C please.
**Result** 0.71

**Query** Continue with CCCC(=O)O[C@@H]1[C@H](C(C)C)[C@@H]2[C@H]3C=C(C)[C@H](O)[C@H](OC(C)=O)[C@@H](OC(=O)CCC)[C@]3(C)C[C@H](OC(=O)CCC)[C@]2(C)[C@H]1OC(=O)CCC
**Result** 3.5

**Query** Ok, now CCCC(=O)O[C@H]1C[C@]2(C)[C@H]([C@H]1C(C)C)[C@H]1C=C(C)[C@H](OC(C)=O)[C@H](O)[C@@H](OC(=O)CCC)[C@]1(C)C[C@@H]2OC(=O)CCC
**Result** 0.25

**Query** Likewise for CCCC(=O)O[C@@H]1[C@H](C(C)C)[C@@H]2[C@H]3C=C(C)[C@H](O)[C@H](OC(C)=O)[C@@H](OC(=O)CCC)[C@]3(C)C[C@H](OC(=O)CCC)[C@]2(C)[C@H]1OC(=O)CC ?
**Result** 9.1

* * *

System: K562
ASSAY_NOTES: Cytotoxicity against human K562 cells
Format: functional
TEST_CONDITIONS: read-out: LC50 (the source's name)
PROPERTY: CC50 (µg/mL)
Expressed in µg/mL, but write only the number.

| ENTRY_SMILES | PROPERTY | MEASUREMENT_UNIT | NUMERIC_READOUT |
| --- | --- | --- | --- |
| CCCC(=O)O[C@@H]1[C@H](C(C)C)[C@@H]2[C@H]3C=C(C)[C@H](O)[C@H](OC(C)=O)[C@@H](OC(C)=O)[C@]3(C)C[C@H](OC(=O)CCC)[C@]2(C)[C@H]1OC(=O)CCC | CC50 | µg/mL | 8.5 |
| CCCC(=O)O[C@@H]1[C@H](C(C)C)[C@@H]2[C@H]3C=C(C)[C@H](OC(C)=O)[C@H](O)[C@@H](OC(=O)CCC)[C@]3(C)C[C@H](OC(=O)CCC)[C@]2(C)[C@H]1OC(=O)CCC | CC50 | µg/mL | 11.1 |
| CCCCC(=O)O[C@@H]1[C@H](C(C)C)[C@@H]2[C@H]3C=C(C)[C@H](O)[C@H](OC(C)=O)[C@@H](OC(=O)CCC)[C@]3(C)C[C@H](OC(=O)CCC)[C@]2(C)[C@H]1OC(=O)CCC | CC50 | µg/mL | 17.5 |
| CCCC(=O)O[C@@H]1[C@H](C(C)C)[C@@H]2[C@H]3C=C(C)[C@H](O)[C@H](OC(C)=O)[C@@H](OC(=O)CCC)[C@]3(C)C[C@H](OC(=O)CCC)[C@]2(C)[C@H]1OC(C)=O | CC50 | µg/mL | 0.37 |
| CCCC(=O)O[C@H]1C[C@]2(C)[C@H](C=C(C)[C@H](OC(C)=O)[C@H](O)[C@H]2OC(=O)CCC)[C@H]2[C@@H](C(C)C)[C@@H](OC(C)=O)C[C@]21C | CC50 | µg/mL | 0.45 |

Alright, here's another molecule for you.
**Query** Query: CC50; subject: CCCC(=O)O[C@H]1C[C@]2(C)[C@H]([C@H]1C(C)C)[C@H]1C=C(C)[C@H](O)[C@H](OC(C)=O)[C@@H](OC(=O)CCC)[C@]1(C)C[C@@H]2OC(C)=O
**Result** 12.5
